test summary: recombinant UMI read abundance after kanamycin selection (control-corrected) (log10(CPM+1)); higher = more efficient recombination; extreme values may be limits of the assay; sequences stand for … in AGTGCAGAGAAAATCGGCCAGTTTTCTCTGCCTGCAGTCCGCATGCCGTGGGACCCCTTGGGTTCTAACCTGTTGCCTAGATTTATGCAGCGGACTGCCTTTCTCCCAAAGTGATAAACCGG…AGGTTGGTTTCACT; site = the 11-nt donor
If the reported recombinant UMI read abundance (log10) equals or exceeds 0.02, assign t. If not, assign f.

Recorded results for 3 sequences are shown here.
GAATGGCCATGGACCGGTTTTCCCGGTAATCCGTATTTGCG (site GAATGGCCTAG)    f
TCACGACCATGGACCGGTTTTCCCGGTAATCCGTATTTGTG (site TCACGACCTCA)    f
ACACGTACATGGACCGGTTTTCCCGGTAATCCGTATTTGGG (site ACACGTACTCC)    t

[Q] Does the sequence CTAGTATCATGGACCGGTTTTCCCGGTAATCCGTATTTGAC (site ATAGTAGCTGT) have recorded recombinant UMI read abundance (log10) that is 0.02 or more?
[A] f

[Q] Does the sequence TAGCCCTCATGGACCGGTTTTCCCGGTAATCCGTATTTGGT (site TAGCCGTCTAC) have recorded recombinant UMI read abundance (log10) that is 0.02 or more?
[A] f

[Q] Does the sequence TCATTCTCATGGACCGGTTTTCCCGGTAATCCGTATTTGCA (site TCATCCTCTTG) have recorded recombinant UMI read abundance (log10) that is 0.02 or more?
[A] f

[Q] Does the sequence GTTGTTCCATGGACCGGTTTTCCCGGTAATCCGTATTTGTT (site GTTGTTCCTAC) have recorded recombinant UMI read abundance (log10) that is 0.02 or more?
[A] f

[Q] Does the sequence TCGCATGCATGGACCGGTTTTCCCGGTAATCCGTATTTGGT (site TCGCATGCTAC) have recorded recombinant UMI read abundance (log10) that is 0.02 or more?
[A] t

* * *

test summary: recombinant UMI read abundance after kanamycin selection (control-corrected) (log10(CPM+1)); higher = more efficient recombination; extreme values may be limits of the assay; sequences stand for … in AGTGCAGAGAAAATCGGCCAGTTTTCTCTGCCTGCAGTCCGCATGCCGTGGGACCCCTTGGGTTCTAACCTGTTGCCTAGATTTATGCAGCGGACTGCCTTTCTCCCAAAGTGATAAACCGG…AGGTTGGTTTCACT; site = the 11-nt donor
If the reported recombinant UMI read abundance (log10) equals or exceeds 0.4, assign MET. If not, assign NOT MET.

Recorded results for 4 sequences are shown here.
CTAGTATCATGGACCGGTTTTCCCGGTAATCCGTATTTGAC (site CTAGTGTCTAT)    NOT MET
CGTTAGACATGGACCGGTTTTCCCGGTAATCCGTATTTGCG (site CGTTAGACTCG)    MET
CATGCGCCATGGACCGGTTTTCCCGGTAATCCGTATTTGTG (site CAAGCGCCTCA)    NOT MET
CCACTATCATGGACCGGTTTTCCCGGTAATCCGTATTTGAC (site CTAGTATCTGT)    NOT MET

[Q] Does the sequence GGCAATCCATGGACCGGTTTTCCCGGTAATCCGTATTTGTA (site GGCAATCCTTC) have recorded recombinant UMI read abundance (log10) that is 0.4 or more?
[A] NOT MET

[Q] Does the sequence CAGTTCCCATGGACCGGTTTTCCCGGTAATCCGTATTTGCT (site CATTTCCCTAG) have recorded recombinant UMI read abundance (log10) that is 0.4 or more?
[A] MET

[Q] Does the sequence CAATTCTCATGGACCGGTTTTCCCGGTAATCCGTATTTGAA (site CAATGCTCTTT) have recorded recombinant UMI read abundance (log10) that is 0.4 or more?
[A] NOT MET

[Q] Does the sequence TAACGAACATGGACCGGTTTTCCCGGTAATCCGTATTTGCG (site TAACGAACTCG) have recorded recombinant UMI read abundance (log10) that is 0.4 or more?
[A] MET

[Q] Does the sequence CTCTACACATGGACCGGTTTTCCCGGTAATCCGTATTTGCA (site CTCTACACTAG) have recorded recombinant UMI read abundance (log10) that is 0.4 or more?
[A] MET

* * *

Each entry below carries its recorded recombinant UMI read abundance (log10).
test summary: recombinant UMI read abundance after kanamycin selection (control-corrected) (log10(CPM+1)); higher = more efficient recombination; extreme values may be limits of the assay; sequences stand for … in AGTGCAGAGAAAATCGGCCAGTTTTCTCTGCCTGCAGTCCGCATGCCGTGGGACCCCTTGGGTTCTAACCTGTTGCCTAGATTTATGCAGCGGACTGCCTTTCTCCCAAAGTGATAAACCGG…AGGTTGGTTTCACT; site = the 11-nt donor
Lab note: write the figure by itself, no unit.

GGATCGACATGGACCGGTTTTCCCGGTAATCCGTATTTGTT (site TGATCGACTAA)    0.00972
AAGGAAACATGGACCGGTTTTCCCGGTAATCCGTATTTGCA (site AAGGAAACTTG)    2.06
ATCACATCATGGACCGGTTTTCCCGGTAATCCGTATTTGCG (site ATCACATCTCG)    2.31

Lab note: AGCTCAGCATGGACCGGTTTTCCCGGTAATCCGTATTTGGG (site AGCTCAGCTCC) gave recombinant UMI read abundance (log10) of 0.0108

Lab note: AGTGCTCCATGGACCGGTTTTCCCGGTAATCCGTATTTGAA (site AGTGCTCCTTT) gave recombinant UMI read abundance (log10) of 0.416

Lab note: CACTTGGCATGGACCGGTTTTCCCGGTAATCCGTATTTGTA (site CACTTGGCTTT) gave recombinant UMI read abundance (log10) of 0.75

Lab note: GGATTGACATGGACCGGTTTTCCCGGTAATCCGTATTTGCC (site GGATTGACTGG) gave recombinant UMI read abundance (log10) of 1.98

Lab note: CGATCTTCATGGACCGGTTTTCCCGGTAATCCGTATTTGTT (site CGATCTTCTAA) gave recombinant UMI read abundance (log10) of 0.751

Lab note: GTTCAAGCATGGACCGGTTTTCCCGGTAATCCGTATTTGTC (site GTTCAAGCTGA) gave recombinant UMI read abundance (log10) of 1.84

* * *

test summary: recombinant barcode read abundance after kanamycin selection (control-corrected) (log10(CPM+1)); higher = more efficient recombination; sequences stand for … in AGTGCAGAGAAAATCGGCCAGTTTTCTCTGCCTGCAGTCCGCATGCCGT…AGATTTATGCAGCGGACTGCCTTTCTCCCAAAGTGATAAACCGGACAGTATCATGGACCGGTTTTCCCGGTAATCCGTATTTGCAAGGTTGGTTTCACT; site = the 11-nt target
readout: recombinant barcode read abundance (log10)
Lab note: write the figure by itself, no unit.

Worked examples, 2 sequences total:
CGGAAGTCTTGGGTTCTAACCTGTTGCCT (site CGGAAGGCTAG)    0.247
CGCTGATCTTGGGTTCTAACCTGTTGCCT (site AGCTGATCTAG)    0.0494

Lab note: ACCTTGCCTTGGGTTCTAACCTGTTGCCT (site ACTTTGCCTAG) gave recombinant barcode read abundance (log10) of 0.0414

Lab note: TCTTATTCTTGGGTTCTAACCTGTTGCGT (site TCTTATTCTAC) gave recombinant barcode read abundance (log10) of 0.258

Lab note: ACGGCTTCTTGGGTTCTAACCTGTTGCTA (site ACGGCTTCTTA) gave recombinant barcode read abundance (log10) of 0.494

Lab note: TACGGGTCTTGGGTTCTAACCTGTTGCCT (site AAGGGGTCTAG) gave recombinant barcode read abundance (log10) of 0.0993

Lab note: CACATACCTTGGGTTCTAACCTGTTGCGT (site CACATACCTAC) gave recombinant barcode read abundance (log10) of 1.92

* * *

test summary: recombinant UMI read abundance after kanamycin selection (control-corrected) (log10(CPM+1)); higher = more efficient recombination; extreme values may be limits of the assay; sequences stand for … in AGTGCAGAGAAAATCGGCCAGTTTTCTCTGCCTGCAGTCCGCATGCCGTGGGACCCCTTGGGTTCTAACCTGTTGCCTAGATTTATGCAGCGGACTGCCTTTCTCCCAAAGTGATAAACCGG…AGGTTGGTTTCACT; site = the 11-nt donor
Please map values of recombinant UMI read abundance (log10) to classes as shown: zone 1: < 0.003; zone 2: ≥ 0.003 and < 0.9; zone 3: ≥ 0.9

CCCGGTCCATGGACCGGTTTTCCCGGTAATCCGTATTTGGA (site CCCGGTCCTTC)    zone 2
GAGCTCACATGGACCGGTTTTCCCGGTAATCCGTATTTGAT (site GAGCTCACTAC)    zone 1
TGCTCCACATGGACCGGTTTTCCCGGTAATCCGTATTTGGA (site TGCTCCACTTC)    zone 1
GAAGCGCCATGGACCGGTTTTCCCGGTAATCCGTATTTGTG (site TAAGCGCCTCA)    zone 2
TCTTGCCCATGGACCGGTTTTCCCGGTAATCCGTATTTGAT (site GCTTGCCCTAT)    zone 1
CGGTAGCCATGGACCGGTTTTCCCGGTAATCCGTATTTGCT (site CGGTAGCCTAG)    zone 2

[Q] Looking at GGTTGGACATGGACCGGTTTTCCCGGTAATCCGTATTTGAC (site GATTGGACTGT) , which class would you pick?
[A] zone 1

[Q] Looking at CCGGGTCCATGGACCGGTTTTCCCGGTAATCCGTATTTGCA (site CCTGGTCCTTG) , which class would you pick?
[A] zone 2

[Q] Looking at TAGCCGGCATGGACCGGTTTTCCCGGTAATCCGTATTTGGC (site TGGCCGGCTGC) , which class would you pick?
[A] zone 1

[Q] Looking at TGTTTGGCATGGACCGGTTTTCCCGGTAATCCGTATTTGCT (site TGTTTGGCTAG) , which class would you pick?
[A] zone 1

[Q] Looking at CGAATTCCATGGACCGGTTTTCCCGGTAATCCGTATTTGTT (site CGGAATCCTAA) , which class would you pick?
[A] zone 1
